assay: Thermodynamic solubility of compound at pH 7.4; format: physicochemical; conditions: buffer, read-out: Therm_solubility
Exercise: for every item that follows, state its recorded solubility thermodynamic.
Report the value in µg/mL with no unit label.

Reported solubility thermodynamic of `Cn1cc(-c2n[nH]c3cc(Cl)c(N[C@@H]4CCNC4)cc23)cn1` : 297

Reported solubility thermodynamic of `FC(F)(F)n1cc(-c2n[nH]c3cc(Cl)c(N[C@@H]4CCN(C5COC5)C4)cc23)cn1` : 4.58

Reported solubility thermodynamic of `COc1ccc(-n2cc(-c3n[nH]c4cc(Cl)c(N[C@@H]5CCN(C6COC6)C5)cc34)cn2)cc1` : 1.84

Reported solubility thermodynamic of `COc1ccc(-n2cc(-c3n[nH]c4cc(Cl)c(N[C@H]5CNCC56CC6)cc34)cn2)cc1` : 5.55

Reported solubility thermodynamic of `Cn1cc(-c2n[nH]c3cc(Cl)c(N[C@@H]4CCN(C5COC5)C4)cc23)cn1` : 245

---

Target: Tyrosine-protein kinase receptor UFO (Homo sapiens, UniProt P30530)
Sequence (P30530 whole entry): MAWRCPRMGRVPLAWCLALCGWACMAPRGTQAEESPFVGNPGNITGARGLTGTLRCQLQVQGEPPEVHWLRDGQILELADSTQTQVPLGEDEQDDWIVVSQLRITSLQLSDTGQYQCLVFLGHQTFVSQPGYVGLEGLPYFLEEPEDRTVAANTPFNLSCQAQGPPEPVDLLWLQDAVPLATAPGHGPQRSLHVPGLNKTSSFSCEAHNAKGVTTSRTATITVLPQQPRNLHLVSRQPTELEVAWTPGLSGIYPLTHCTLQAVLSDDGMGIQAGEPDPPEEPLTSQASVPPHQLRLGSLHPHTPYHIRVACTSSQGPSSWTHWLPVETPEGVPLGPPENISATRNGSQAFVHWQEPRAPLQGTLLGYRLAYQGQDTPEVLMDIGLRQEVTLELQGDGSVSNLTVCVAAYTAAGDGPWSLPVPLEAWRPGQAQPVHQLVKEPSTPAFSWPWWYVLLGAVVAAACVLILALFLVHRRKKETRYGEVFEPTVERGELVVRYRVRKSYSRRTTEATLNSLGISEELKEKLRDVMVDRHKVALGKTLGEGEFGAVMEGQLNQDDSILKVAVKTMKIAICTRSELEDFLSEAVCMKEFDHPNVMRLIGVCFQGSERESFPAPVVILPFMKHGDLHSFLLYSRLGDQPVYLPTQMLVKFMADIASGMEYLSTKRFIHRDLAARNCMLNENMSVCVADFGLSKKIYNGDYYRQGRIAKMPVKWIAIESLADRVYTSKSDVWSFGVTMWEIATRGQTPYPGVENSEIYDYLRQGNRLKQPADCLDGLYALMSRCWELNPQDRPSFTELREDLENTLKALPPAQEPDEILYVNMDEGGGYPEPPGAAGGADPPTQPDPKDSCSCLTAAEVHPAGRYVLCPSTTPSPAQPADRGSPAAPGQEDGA
Assay: Inhibition of Axl (unknown origin) using 5'FAM labeled KKKKEEIYFFF-NH2 peptide as substrate incubated for 1.5 hrs
pIC50: −log10 of the molar value.
Use true when the recorded pIC50 is no lower than 4; use false when it is lower.

Req: Quick check: does `c1cnc2[nH]ccc2c1` have pIC50 greater than or equal to 4?
Resp: false

Req: Quick check: does `Cn1cc(-c2n[nH]c3cc(Cl)c(Br)cc23)cn1` have pIC50 greater than or equal to 4?
Resp: true

Req: Quick check: does `Brc1c[nH]c2ncccc12` have pIC50 greater than or equal to 4?
Resp: true

Req: Quick check: does `Clc1ncnc2ccsc12` have pIC50 greater than or equal to 4?
Resp: false

Req: Quick check: does `CC(C)Nc1ccc2c(-c3cnn(C)c3)n[nH]c2c1` have pIC50 greater than or equal to 4?
Resp: true

Req: Quick check: does `Nc1ccc2c(Br)n[nH]c2c1` have pIC50 greater than or equal to 4?
Resp: false

Req: Quick check: does `Cn1cc(-c2n[nH]c3ccc(N[C@H]4CCNC4)cc23)cn1` have pIC50 greater than or equal to 4?
Resp: false

Req: Quick check: does `N#Cc1ccccc1-n1cc(-c2n[nH]c3cc(Cl)c(N[C@@H]4CCNC4)cc23)cn1` have pIC50 greater than or equal to 4?
Resp: true

Req: Quick check: does `FC(F)(F)c1cccc2[nH]ncc12` have pIC50 greater than or equal to 4?
Resp: false

Req: Quick check: does `Brc1cnn2cccnc12` have pIC50 greater than or equal to 4?
Resp: false

Req: Quick check: does `N#Cc1cccc(-n2cc(-c3n[nH]c4cc(Cl)c(N[C@@H]5CCNC5)cc34)cn2)c1` have pIC50 greater than or equal to 4?
Resp: true

Req: Quick check: does `COc1ccc(-n2cc(-c3n[nH]c4cc(Cl)c(N[C@H]5CNCC56CC6)cc34)cn2)cc1` have pIC50 greater than or equal to 4?
Resp: true

Req: Quick check: does `CN1CCC(CNc2ccc3[nH]nc(-c4cnn(C)c4)c3c2)CC1` have pIC50 greater than or equal to 4?
Resp: false

Req: Quick check: does `Nc1cccc2[nH]nc(Br)c12` have pIC50 greater than or equal to 4?
Resp: false

Req: Quick check: does `Cc1ccc(C)n1-c1ccsc1C(=O)O` have pIC50 greater than or equal to 4?
Resp: true

Req: Quick check: does `Cn1cc(-c2n[nH]c3cc(Br)ccc23)cn1` have pIC50 greater than or equal to 4?
Resp: true

Req: Quick check: does `Clc1cc2[nH]nc(-c3cnn(-c4ccccc4)c3)c2cc1N[C@@H]1CCNC1` have pIC50 greater than or equal to 4?
Resp: true

Req: Quick check: does `Fc1ccc(-n2cc(-c3n[nH]c4cc(Cl)c(N[C@@H]5CCNC5)cc34)cn2)cc1` have pIC50 greater than or equal to 4?
Resp: true

Req: Quick check: does `Nc1cccc(-c2cccnc2)c1` have pIC50 greater than or equal to 4?
Resp: false

Req: Quick check: does `Cn1cc(-c2n[nH]c3ccc(N)cc23)cn1` have pIC50 greater than or equal to 4?
Resp: true

Req: Quick check: does `Cn1cc(-c2n[nH]c3ccc(Nc4ccccc4)cc23)cn1` have pIC50 greater than or equal to 4?
Resp: true

Req: Quick check: does `Cn1cc(-c2n[nH]c3cc(Nc4ccccc4)ccc23)cn1` have pIC50 greater than or equal to 4?
Resp: false

Req: Quick check: does `FCCn1cc(-c2n[nH]c3cc(Cl)c(N[C@@H]4CCNC4)cc23)cn1` have pIC50 greater than or equal to 4?
Resp: true

Req: Quick check: does `CN1CC[C@@H](Nc2cc3c(-c4cnn(C)c4)n[nH]c3cc2Cl)C1` have pIC50 greater than or equal to 4?
Resp: true

Req: Quick check: does `COc1cc2[nH]ncc2cc1Br` have pIC50 greater than or equal to 4?
Resp: false

Req: Quick check: does `COc1ccc2[nH]c(C)cc2c1` have pIC50 greater than or equal to 4?
Resp: true

Req: Quick check: does `CN1CCC(Nc2ccc3[nH]nc(-c4cnn(C)c4)c3c2)CC1` have pIC50 greater than or equal to 4?
Resp: false
